# Target or system: ASK1 (Homo sapiens (Human))
# Sequence (Q99683 whole entry): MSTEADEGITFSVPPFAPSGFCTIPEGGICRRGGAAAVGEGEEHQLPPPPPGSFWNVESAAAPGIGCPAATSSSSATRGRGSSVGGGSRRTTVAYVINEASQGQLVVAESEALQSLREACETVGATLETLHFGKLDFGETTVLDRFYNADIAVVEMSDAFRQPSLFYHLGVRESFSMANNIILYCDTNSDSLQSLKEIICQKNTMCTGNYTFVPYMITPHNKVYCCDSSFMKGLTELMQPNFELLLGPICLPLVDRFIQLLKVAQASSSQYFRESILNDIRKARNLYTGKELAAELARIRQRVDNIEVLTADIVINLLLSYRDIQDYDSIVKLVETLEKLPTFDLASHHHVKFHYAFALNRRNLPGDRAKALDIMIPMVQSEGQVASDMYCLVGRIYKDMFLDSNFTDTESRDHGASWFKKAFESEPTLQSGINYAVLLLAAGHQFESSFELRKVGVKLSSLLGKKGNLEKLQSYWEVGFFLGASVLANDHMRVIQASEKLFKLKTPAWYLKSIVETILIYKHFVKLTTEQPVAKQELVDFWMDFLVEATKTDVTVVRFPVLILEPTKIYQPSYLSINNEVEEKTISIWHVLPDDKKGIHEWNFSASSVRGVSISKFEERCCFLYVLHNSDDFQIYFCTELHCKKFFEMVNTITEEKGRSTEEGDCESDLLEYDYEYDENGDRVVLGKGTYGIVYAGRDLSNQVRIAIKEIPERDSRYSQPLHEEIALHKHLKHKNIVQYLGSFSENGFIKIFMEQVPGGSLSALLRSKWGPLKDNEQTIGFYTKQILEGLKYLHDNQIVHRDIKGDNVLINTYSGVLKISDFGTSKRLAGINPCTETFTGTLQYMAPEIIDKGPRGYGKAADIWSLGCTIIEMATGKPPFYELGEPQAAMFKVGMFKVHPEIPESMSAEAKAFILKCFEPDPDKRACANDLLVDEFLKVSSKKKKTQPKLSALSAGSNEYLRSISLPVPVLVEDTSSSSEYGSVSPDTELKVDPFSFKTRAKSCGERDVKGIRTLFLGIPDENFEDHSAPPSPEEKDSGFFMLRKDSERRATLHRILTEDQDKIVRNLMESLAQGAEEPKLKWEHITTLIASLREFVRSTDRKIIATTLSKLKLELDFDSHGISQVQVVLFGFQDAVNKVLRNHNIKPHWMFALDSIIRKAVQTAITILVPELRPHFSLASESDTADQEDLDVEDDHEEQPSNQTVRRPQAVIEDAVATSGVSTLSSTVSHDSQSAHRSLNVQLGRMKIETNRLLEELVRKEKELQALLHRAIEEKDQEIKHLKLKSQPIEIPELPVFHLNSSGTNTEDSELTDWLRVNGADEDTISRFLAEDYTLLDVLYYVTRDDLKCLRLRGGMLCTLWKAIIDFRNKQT
Parameter: IC50

* O=C1c2sc3ccccc3c2CN1c1cccc(-c2nncn2C2CC2)n1 | < 1000 nM
* CC(C)CNc1csc2c1CN(c1cccc(-c3nncn3C3CC3)n1)C2=O | 1000 to 10000 nM
* O=C1c2scc(Br)c2CN1c1cccc(-c2nncn2C2CC2)n1 | < 1000 nM
* CC(=O)c1ccccc1-c1cc2c(s1)C(=O)N(c1cccc(-c3nncn3C3CC3)n1)C2 | < 1000 nM
* O=C1c2sc(C3CCOCC3)cc2CN1c1cccc(-c2nncn2C2CC2)n1 | < 1000 nM
